The values you see were collected from patent US7420001B2.

molecular target: MMP-13 (Homo sapiens, UniProt P45452); construct: made in house; assay: In-vitro fluorescence assay of MMP-13 activity; format: biochemical; conditions: recombinant human catalytic domain of MMP-13; read-out: MMP-13 IC50
pIC50: −log10 of the molar value.
# label = 1 if pIC50 >= 8 else 0

>  <item.smiles>
COc1c(Br)ccc2oc(COc3ccc(-c4ccc(S(=O)(=O)N[C@@H](C(=O)O)C(C)C)cc4)cc3)c(C)c12

>  <class>
1

$$$$
>  <item.smiles>
Cc1c(C(=O)Nc2ccc(-c3ccc(S(=O)(=O)N[C@H](C(=O)O)C(C)C)cc3)cc2)oc2cccc(NC(=O)OC(C)(C)C)c12

>  <class>
0

$$$$
>  <item.smiles>
Cc1c(C(=O)Oc2ccc(-c3ccc(S(=O)(=O)N[C@@H](C(=O)O)C(C)C)cc3)cc2)oc2ccccc12

>  <class>
1

$$$$

Is reported pIC50 greater than or equal to 8 here: CC(=O)Nc1cccc2oc(C(=O)Nc3ccc(-c4ccc(S(=O)(=O)N[C@H](C(=O)O)C(C)C)cc4)cc3)c(C)c12
0

Does the reported pIC50 for CCc1ccc2oc(C(=O)Nc3ccc(-c4ccc(S(=O)(=O)N[C@H](C(=O)O)C(C)C)cc4)cc3)c(C)c2c1OC(C)C fall at or above the 8 mark?
0

---

Molecular target: MMP-2 (Homo sapiens)
Construct: purchased Oncogene Research Products (Calbiochem) PF023
Sequence (P08253 110-660): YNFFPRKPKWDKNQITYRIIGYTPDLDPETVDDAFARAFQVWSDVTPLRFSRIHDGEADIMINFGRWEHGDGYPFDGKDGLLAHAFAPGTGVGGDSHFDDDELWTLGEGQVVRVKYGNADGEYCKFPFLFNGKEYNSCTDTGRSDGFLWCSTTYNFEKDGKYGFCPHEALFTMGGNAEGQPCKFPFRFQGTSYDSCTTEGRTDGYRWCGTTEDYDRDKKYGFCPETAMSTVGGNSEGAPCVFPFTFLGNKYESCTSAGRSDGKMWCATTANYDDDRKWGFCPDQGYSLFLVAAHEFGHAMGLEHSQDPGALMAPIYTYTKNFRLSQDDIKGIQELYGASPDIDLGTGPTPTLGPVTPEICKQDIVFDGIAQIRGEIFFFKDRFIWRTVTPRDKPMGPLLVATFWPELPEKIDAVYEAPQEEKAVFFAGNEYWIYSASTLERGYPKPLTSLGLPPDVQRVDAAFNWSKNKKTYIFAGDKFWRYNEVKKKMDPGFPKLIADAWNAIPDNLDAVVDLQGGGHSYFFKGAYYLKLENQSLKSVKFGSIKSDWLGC
Assay: In-vitro fluorescence assay of MMP-2 activity
Type: biochemical
Settings: recombinant human MMP-2; read-out: MMP-2 IC50
Sorting guide: entries reporting IC50 beneath 4000 nM go in the t pile, the rest go in the f pile.

Past entries and their recorded results:
>  <compound>
Cc1c(C(=O)Nc2ccc(-c3ccc(S(=O)(=O)N(C)[C@H](C(=O)O)C(C)C)cc3)cc2)oc2cccc(NS(C)(=O)=O)c12

>  <target.under.test>
MMP-2 (Homo sapiens)

>  <class>
f

$$$$
>  <compound>
Cc1cc(-c2ccc(S(=O)(=O)N[C@@H](C(=O)O)C(C)C)cc2)cc(C)c1OC(=O)c1cc2ccccc2o1

>  <target.under.test>
MMP-2 (Homo sapiens)

>  <class>
t

$$$$

hey, is IC50 for Cc1c(C(=O)Nc2ccc(-c3ccc(S(=O)(=O)N[C@H](C(=O)O)C(C)C)cc3)cc2)oc2cccc(-c3ccoc3)c12 lower than 4000 nM or not?
t

Lab log: compare recorded IC50 with 4000 nM; is it strictly lower for COc1c(Br)ccc2oc(C(=O)Nc3ccc(-c4ccc(S(=O)(=O)NC(C(=O)O)C(C)C)cc4)cc3)c(C)c12 (stereo in doubt) ?
t

Is it true that IC50 reported for Cc1c(C(=O)Nc2ccc(-c3ccc(S(=O)(=O)N[C@H](C(=O)O)C(C)C)cc3)cc2)oc2cccc(CO)c12 is less than 4000 nM?
t

Is the reported IC50 for Cc1c(C(=O)Nc2ccc(-c3ccc(S(=O)(=O)N[C@H](C(=O)O)C(C)C)cc3)cc2)oc2cccc(N(C)S(C)(=O)=O)c12 strictly below 4000 nM?
t

---

// reported pIC50 for each item listed
target: MMP-13 (Homo sapiens); construct: made in house; test: In-vitro fluorescence assay of MMP-13 activity; assay type: biochemical; details: recombinant human catalytic domain of MMP-13; read-out: MMP-13 IC50
# pIC50 is unitless: minus log10 of the molar concentration; print number only

The examples below pair each entry with its known result.
>  <molecule>
CC(=O)N(C)c1cccc2oc(C(=O)Nc3ccc(-c4ccc(S(=O)(=O)N[C@H](C(=O)O)C(C)C)cc4)cc3)c(C)c12

>  <pIC50>
7.70

$$$$
>  <molecule>
Cc1c(C(=O)Nc2ccc(-c3ccc(S(=O)(=O)N[C@H](C(=O)O)C(C)C)cc3)cc2)oc2cccc(C#CCO)c12

>  <pIC50>
8.21

$$$$
>  <molecule>
Cc1c(C(=O)Nc2ccc(-c3ccc(S(=O)(=O)N[C@H](C(=O)O)C(C)C)cc3)cc2)oc2cccc(OCC(=O)N(C)C)c12

>  <pIC50>
7.70

$$$$
>  <molecule>
CC(Oc1cccc2oc(C(=O)Nc3ccc(-c4ccc(S(=O)(=O)N[C@H](C(=O)O)C(C)C)cc4)cc3)cc12)C(=O)O (stereo partly shown)

>  <pIC50>
7.96

$$$$
>  <molecule>
O=C(O)CNS(=O)(=O)c1ccc(-c2ccc(NC(=O)c3cc4ccccc4o3)cc2)cc1

>  <pIC50>
7.46

$$$$
>  <molecule>
CCc1c(C(=O)Nc2ccc(-c3ccc(S(=O)(=O)N[C@H](C(=O)O)C(C)C)cc3)cc2)oc2ccccc12

>  <pIC50>
7.25

$$$$

Pending molecule:
Consider the molecule shown here: CC(C)[C@H](NS(=O)(=O)c1ccc(-c2ccc(NC(=O)c3cc4cc(NS(=O)(=O)c5ccccc5)ccc4o3)cc2)cc1)C(=O)O What is its recorded pIC50?
8.47

---

Recorded IC50, one value per entry.
molecular target: MMP-13 (Homo sapiens, UniProt P45452); construct: made in house; assay: In-vitro fluorescence assay of MMP-13 activity; assay type: biochemical; details: recombinant human catalytic domain of MMP-13; read-out: MMP-13 IC50

>  <compound>
CNc1cccc2oc(C(=O)Nc3ccc(-c4ccc(S(=O)(=O)N[C@H](C(=O)O)C(C)C)cc4)cc3)c(C)c12

>  <metric.name>
IC50

>  <observed.result>
8 nM

$$$$
>  <compound>
Cc1c(C(=O)Nc2ccc(-c3ccc(S(=O)(=O)N[C@H](C(=O)O)C(C)C)cc3)cc2)oc2ccc3ccccc3c12

>  <metric.name>
IC50

>  <observed.result>
1.7 nM

$$$$
>  <compound>
Cc1c(C(=O)Nc2ccc(-c3ccc(S(=O)(=O)N[C@H](C(=O)O)C(C)C)cc3)cc2)oc2cccc(C3COC(C)(C)O3)c12 (stereo partly drawn)

>  <metric.name>
IC50

>  <observed.result>
6.9 nM

$$$$
>  <compound>
Cc1c(C(=O)Nc2ccc(-c3ccc(S(=O)(=O)N[C@H](C(=O)O)C(C)C)cc3)cc2)oc2cccc(OCc3cccnc3)c12

>  <metric.name>
IC50

>  <observed.result>
9.5 nM

$$$$
>  <compound>
Cc1c(C(=O)Nc2ccc(-c3ccc(S(=O)(=O)N[C@H](C(=O)O)C(C)C)cc3)cc2)oc2cccc(CCC(C)(C)C)c12

>  <metric.name>
IC50

>  <observed.result>
93 nM

$$$$

Could you now consider this next compound?
Requested read-out: IC50. Entry: Cc1c(C(=O)Nc2ccc(-c3ccc(S(=O)(=O)N[C@H](C(=O)O)C(C)C)cc3)cc2)oc2cccc(C#CC(C)(C)C)c12
152 nM

---

Quick list: IC50 per entry.
molecular target: MMP-13 (Homo sapiens, UniProt P45452); construct: made in house; assay: In-vitro fluorescence assay of MMP-13 activity; assay type: biochemical; conditions: recombinant human catalytic domain of MMP-13; read-out: MMP-13 IC50
Only the number, expressed in nM, is required.

Example entries and their recorded answers appear below.
>  <item.smiles>
COc1c(C#N)ccc2oc(COc3ccc(-c4ccc(S(=O)(=O)N[C@H](C(=O)O)C(C)C)cc4)cc3)c(C)c12

>  <target.under.test>
MMP-13 (Homo sapiens, UniProt P45452)

>  <measurement.unit>
nM

>  <IC50>
1.2

$$$$
>  <item.smiles>
Cc1c(C(=O)Nc2ccc(-c3ccc(S(=O)(=O)N[C@H](C(=O)O)C(C)C)cc3)cc2)oc2cccc(-c3nn[nH]n3)c12

>  <target.under.test>
MMP-13 (Homo sapiens, UniProt P45452)

>  <measurement.unit>
nM

>  <IC50>
13

$$$$

We next turn to a different compound, shown below.
Consider the compound shown here: COc1c(Br)ccc2oc(C(=O)Nc3ccc(-c4ccc(S(=O)(=O)N[C@H](C(=O)O)C(C)C)cc4)cc3)c(C)c12 What is its recorded IC50?
2.3
